Target Of Assay: T1, P8mSN
T1 chain: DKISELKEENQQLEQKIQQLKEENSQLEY
Procedure Summary: two-hybrid library CCNG1;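 also: natural log of median RNA to DNA barcode read ratio; higher means stronger binding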
Answer no (0) if interaction score is under -0.6, and yes (1) if it is -0.6 or more.

Hi team, for DEIQQLEEEISQLEQKNSELKEKNQELKY [P3mSN] , is the recorded interaction score at or above -0.6?
yes (1)

Hi team, for DENSQLEEKISQLKQKNSELKEEIQQLEY [P5mSN] , is the recorded interaction score at or above -0.6?
no (0)

Hi team, for DKIEELKEKNSQLKEKNEELKQKIYELKE [P2mSN] , is the recorded interaction score at or above -0.6?
no (0)

Hi team, for DENQSLEQEISQLEQEIQQLEQKNSELKY [P11mSN] , is the recorded interaction score at or above -0.6?
yes (1)

Hi team, for DKNSELKEEIQQLEEENQQLEEKISELKY [P6mSN] , is the recorded interaction score at or above -0.6?
no (0)
